# METHOD DESCRIPTION: qHTS of pediatric cancer cell lines to identify multiple opportunities for drug repurposing: Confirmatory screen for LAN-5 cells (AID 1347113); also: nearly all actives have a fitted effect of over 65% in size
# CONDITION PARAMETERS: LAN-5 neuroblastoma cell viability; series mostly up to 45.9 µM
Records with an inconclusive call do not appear. Calls of active or inactive are those of the source. Calls follow the shape of the dose curve; as a rule, active = well fitted cell-killing curve with a large enough effect; inconclusive = small, poorly fitted or top-dose-only effect, or effect the other way; inactive = no such curve, though single readings can be large or run the other way.
Labels: true (1) = active, false (0) = inactive

- CCC(=O)O[C@]1(C(=O)CCl)[C@@H](C)C[C@H]2[C@@H]3CCC4=CC(=O)C=C[C@]4(C)[C@@]3(F)[C@@H](O)C[C@@]21C: false (0)
- Oc1c(Cl)cc(Cl)c2cccnc12: true (1)
- CS(=O)(=O)c1ccc([C@@H](O)[C@@H](CO)NC(=O)C(Cl)Cl)cc1: false (0)

----------
# TARGET: Voltage-gated inwardly rectifying potassium channel KCNH2 (Homo sapiens)
# METHOD DESCRIPTION: qHTS Assay for Small Molecule Inhibitors of the Human hERG Channel Activity (AID 588834);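 also: lower thallium flux fluorescence means stronger hERG block; nearly all actives have a fitted effect of over 50% in size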
# CONDITION PARAMETERS: U2OS BacMam hERG, FluxOR thallium flux fluorescence; series mostly up to 46.1 µM
# Description: NIH Chemical Genomics Center [NCGC] National Institutes of Environmental Health Sciences [NIEHS] National Toxicology Program [NTP] We have developed a 1536-well cell-based assay for quantitative high throughput screening (qHTS) to determine in vitro hERG channel blockage as a measure of cardio toxicity with small molecules. […] 13. Read fluorescence Intensity on FDSS for 10 Sec with 1 sec interval […] 15. Read fluorescence Intensity on FDSS for 2 min with 1 sec interval […]
Records with an inconclusive call do not appear. Activity calls are given as the source filed them. Calls follow the shape of the dose curve; as a rule, active = well fitted inhibition curve with a large enough effect; inconclusive = small, poorly fitted or top-dose-only effect; inactive = flat fitted curve, though single readings scatter.
Outcomes: active, inactive

* COC(=O)Nc1nc2ccc(C(=O)c3ccccc3)cc2[nH]1 | inactive
* CNC(=O)c1cc(Oc2ccc(NC(=O)Nc3ccc(Cl)c(C(F)(F)F)c3)cc2)ccn1 | active
* CNS(=O)(=O)Cc1ccc2[nH]cc(CCN(C)C)c2c1 | inactive
* CC(=O)[C@H]1CC[C@H]2[C@@H]3CC=C4C[C@@H](O)CC[C@]4(C)[C@H]3CC[C@]12C | inactive
* C[C@@H]1CN(c2c(F)c(N)c3c(=O)c(C(=O)O)cn(C4CC4)c3c2F)C[C@H](C)N1 | inactive
* CCOC(=O)c1ccc(OC(=O)CCCCCN=C(N)N)cc1 | inactive
* CCN(C)C(=O)Oc1cccc([C@H](C)N(C)C)c1 | inactive
* CCc1cc(C(N)=S)ccn1 | inactive
* COc1ccccc1OCC(O)COC(N)=O (configuration not stated) | inactive
* CCCc1nc(C)c2c(=O)[nH]c(-c3cc(S(=O)(=O)N4CCN(CC)CC4)ccc3OCC)nn12 | inactive
* CCCCOc1ccc(CC(=O)NO)cc1 | inactive
* CN1CCN(c2c(F)cc3c(=O)c(C(=O)O)cn4c3c2OCN4C)CC1 | inactive
* CNNCc1ccc(C(=O)NC(C)C)cc1 | inactive
* CC(=O)Oc1ccccc1C(=O)Nc1ncc([N+](=O)[O-])s1 | inactive
* CCn1cc(C(=O)O)c(=O)c2cc(F)c(N3CCNCC3)cc21 | inactive
* COc1nc(N)nc2c1ncn2[C@@H]1O[C@H](CO)[C@@H](O)[C@@H]1O | inactive
* CCOC(=O)[C@H](CCc1ccccc1)N[C@H]1CS[C@H](c2cccs2)CN(CC(=O)O)C1=O | inactive

----------
# METHOD DESCRIPTION: qHTS of pediatric cancer cell lines to identify multiple opportunities for drug repurposing: Confirmatory screen for Saos-2 cells (AID 1347127); also: nearly all actives have a fitted effect of over 60% in size
# CONDITION PARAMETERS: Saos-2 osteosarcoma cell viability; series mostly up to 45.9 µM
Inconclusive results are not listed. Activity calls are given as the source filed them. The call rests on the fitted dose curve; in most records, active means well fitted cell-killing curve with a large enough effect; inconclusive means small, poorly fitted or top-dose-only effect, or effect the other way; inactive means no such curve, though single readings can be large or run the other way.
Outcome codes: active, inactive

* CN(C)c1ccc(C(=C2C=CC(=[N+](C)C)C=C2)c2ccc(N(C)C)cc2)cc1 | active
* CNS(=O)(=O)CCc1ccc2[nH]cc(C3CCN(C)CC3)c2c1 | inactive
* CNCC[C@H](Oc1cccc2ccccc12)c1cccs1 | inactive
* COc1cc2c(Nc3ccc(Br)cc3F)ncnc2cc1OCC1CCN(C)CC1 | inactive
* C[C@@H](CN1CC(=O)NC(=O)C1)N1CC(=O)NC(=O)C1 | inactive
* CC1CC2C3CCC4=CC(=O)C=C[C@]4(C)[C@@]3(F)[C@@H](O)C[C@]2(C)[C@@]1(O)C(=O)CO (stereo not given in full) | inactive
* CN1CCCC(n2nc(Cc3ccc(Cl)cc3)c3ccccc3c2=O)CC1 (stereo not given) | inactive
* Nc1nc(N)c2nc(CNc3ccc(C(=O)NC(CCC(=O)O)C(=O)O)cc3)cnc2n1 (stereo not given) | inactive
* Cc1cccc(N(C)C(=S)Oc2ccc3ccccc3c2)c1 | inactive
* COc1ccc(C(=O)CC(=O)c2ccc(C(C)(C)C)cc2)cc1 | inactive

----------
# Tested on: P94_40
# METHOD DESCRIPTION: qHTS profiling for inhibitors of Plasmodium falciparum proliferation (AID 504749); also: nearly all actives have a fitted effect of over 60% in size
# CONDITION PARAMETERS: P. falciparum in erythrocytes, SYBR Green DNA, 72 h; series mostly up to 28.7 µM
# Protocol: NIH National Institute of Allergy and Infectious Diseases [NIAID] NIH Chemical Genomics Center [NCGC] […] Because mature erythrocytes lack DNA, only Plasmodium-derived DNA is detected. NCGC Assay Protocol Summary: The SYBR Green viability assay was adapted from a method described previously (Plouffe et al., 2008). […] The following morning, fluorescence intensity at 485(14) nm excitation and 535(25) nm emission wavelengths was measured on an EnVision (Perkin Elmer) plate reader. […]
Inconclusive results are not listed. Calls of active or inactive are those of the source. Calls follow the shape of the dose curve; as a rule, active = well fitted inhibition curve with a large enough effect; inconclusive = small, poorly fitted or top-dose-only effect; inactive = flat fitted curve, though single readings scatter.
Possible outcomes: Y = active, N = inactive

- Cc1oc(=O)oc1CN1CCN(c2cc3c(cc2F)c(=O)c(C(=O)O)c2n3C(C)S2)CC1 (stereo not drawn): Y
- OC(Cn1cncn1)(Cn1cncn1)c1ccc(F)cc1F: N
- Nc1nc(N)c2nc(CNc3ccc(C(=O)NC(CCC(=O)O)C(=O)O)cc3)cnc2n1 (stereo not drawn): N
- Cc1ncc([N+](=O)[O-])n1CCO: N
- C[C@@H](NCCCc1cccc(C(F)(F)F)c1)c1cccc2ccccc12: Y
- COc1ccc2cc3[n+](cc2c1OC)CCc1cc2c(cc1-3)OCO2: Y
- COC(=O)Nc1nc2ccc(Sc3ccccc3)cc2[nH]1: N
- CC(=O)Oc1ccccc1C(=O)Nc1ncc([N+](=O)[O-])s1: N

----------
# METHOD DESCRIPTION: Quantitative High-Throughput drug screen in 47 multiple myeloma cell lines against the NCATS MIPE library collection: EJM_DSMZ cell viability assay (AID 1918926; also: nearly all actives have a fitted effect of over 30% in size)
# CONDITION PARAMETERS: EJM myeloma cell viability, CellTiter-Glo ATP, 48 h; series mostly up to 45.8 µM
Records with an inconclusive call do not appear. Active and inactive are the calls of the source. The call rests on the fitted dose curve; in most records, active means well fitted cell-killing curve with a large enough effect; inconclusive means small, poorly fitted or top-dose-only effect, or effect the other way; inactive means no such curve, though single readings can be large or run the other way.
Outcomes: label 1 for active, label 0 for inactive

• CC(C)(C)NC(=O)[C@H]1CC[C@H]2[C@@H]3CC[C@H]4NC(=O)C=C[C@]4(C)[C@H]3CC[C@]12C = label 1
• CCCCCCNC(=O)n1cc(F)c(=O)[nH]c1=O = label 0
• CCOC(=O)[C@H](CCc1ccccc1)N[C@H]1CCc2ccccc2N(CC(=O)O)C1=O = label 1
• CN1CCN(c2c(F)cc3c(=O)c(C(=O)O)cn(CCF)c3c2F)CC1 = label 0
• O=C(O)c1cccnc1 = label 0
• Cc1noc(NS(=O)(=O)c2ccc(N)cc2)c1C = label 0
• C[C@@H](NCCCc1cccc(C(F)(F)F)c1)c1cccc2ccccc12 = label 0
• Nc1ccc(S(=O)(=O)Nc2ccccn2)cc1 = label 0
• O=S(=O)(O)CCS = label 0
• COc1cc2ncnc(Nc3cccc(Cl)c3)c2cc1OC = label 1
• C[C@@H](CN1CC(=O)NC(=O)C1)N1CC(=O)NC(=O)C1 = label 0
• CCCc1cc(C(N)=S)ccn1 = label 0
• CN(C)c1ccc(C(=C2C=CC(=[N+](C)C)C=C2)c2ccc(N(C)C)cc2)cc1 = label 1
• CC(C)NCC(O)c1ccc(NS(C)(=O)=O)cc1 (centres undefined) = label 0

----------
# METHOD DESCRIPTION: Quantitative High-Throughput drug screen in 47 multiple myeloma cell lines against the NCATS MIPE library collection: OPM1_PLB cell viability assay (AID 1918989); also: nearly all actives have a fitted effect of over 40% in size
# CONDITION PARAMETERS: CellTiter-Glo, 48 h; series mostly up to 45.8 µM
Inconclusive results are not listed. The source made the active and inactive calls. Calls come from the whole dose curve; as a rule, active = well fitted cell-killing curve with a large enough effect; inconclusive = small, poorly fitted or top-dose-only effect, or effect the other way; inactive = no such curve, though single readings can be large or run the other way.
Labels: active, inactive

- CN(C)c1ccc(C(=C2C=CC(=[N+](C)C)C=C2)c2ccc(N(C)C)cc2)cc1: active
- NC(=O)c1cccc(N)c1: inactive
- N=C(N)c1ccc(OCCCCCOc2ccc(C(=N)N)cc2)cc1: active
- CC1(C)[C@H](C(=O)O)N2C(=O)C[C@H]2S1(=O)=O: inactive
- COC(=O)Nc1nc2ccc(Sc3ccccc3)cc2[nH]1: active
- CC1CC2C3CCC4=CC(=O)C=C[C@]4(C)[C@@]3(F)[C@@H](O)C[C@]2(C)[C@@]1(O)C(=O)CO (stereo partly specified): active
- COCCCOc1cc(C[C@@H](C[C@H](N)[C@@H](O)C[C@H](C(=O)NCC(C)(C)C(N)=O)C(C)C)C(C)C)ccc1OC: inactive
- COc1cc2ncnc(Nc3cccc(Cl)c3)c2cc1OC: active
- CCCCCCNC(=O)n1cc(F)c(=O)[nH]c1=O: inactive
- COc1cc(NS(=O)(=O)c2ccc(N)cc2)nc(OC)n1: inactive
- CN(C)CCc1c[nH]c2ccc(CS(=O)(=O)N3CCCC3)cc12: inactive
- CCCN[C@H]1CCc2nc(N)sc2C1: inactive
- CCCCc1oc2ccc(NS(C)(=O)=O)cc2c1C(=O)c1ccc(OCCCN(CCCC)CCCC)cc1: active
- CC(=O)[C@H]1CC[C@H]2[C@@H]3CC=C4C[C@@H](O)CC[C@]4(C)[C@H]3CC[C@]12C: inactive
- CNS(=O)(=O)Cc1ccc2[nH]cc(CCN(C)C)c2c1: inactive
- N[C@@H](C(=O)N[C@@H]1C(=O)N2C(C(=O)O)=C(Cl)CS[C@H]12)c1ccccc1: inactive
- O=c1oc2c(O)c(O)cc3c(=O)oc4c(O)c(O)cc1c4c23: inactive
- CC(C)(C)NC(=O)[C@H]1CC[C@H]2[C@@H]3CC[C@H]4NC(=O)C=C[C@]4(C)[C@H]3CC[C@]12C: active
- CN1CCCC(n2nc(Cc3ccc(Cl)cc3)c3ccccc3c2=O)CC1 (stereo unspecified): active
- COc1cc([C@@H]2c3cc4c(cc3[C@H](O)[C@H]3COC(=O)[C@H]23)OCO4)cc(OC)c1OC: inactive
- CCOC(=O)[C@H](CCc1ccccc1)N[C@H]1CCc2ccccc2N(CC(=O)O)C1=O: active
